Biological target: potassium ion channel hERG (human Ether-á-go-go-Related Gene) (Homo sapiens)
Sequence (Q12809 whole entry): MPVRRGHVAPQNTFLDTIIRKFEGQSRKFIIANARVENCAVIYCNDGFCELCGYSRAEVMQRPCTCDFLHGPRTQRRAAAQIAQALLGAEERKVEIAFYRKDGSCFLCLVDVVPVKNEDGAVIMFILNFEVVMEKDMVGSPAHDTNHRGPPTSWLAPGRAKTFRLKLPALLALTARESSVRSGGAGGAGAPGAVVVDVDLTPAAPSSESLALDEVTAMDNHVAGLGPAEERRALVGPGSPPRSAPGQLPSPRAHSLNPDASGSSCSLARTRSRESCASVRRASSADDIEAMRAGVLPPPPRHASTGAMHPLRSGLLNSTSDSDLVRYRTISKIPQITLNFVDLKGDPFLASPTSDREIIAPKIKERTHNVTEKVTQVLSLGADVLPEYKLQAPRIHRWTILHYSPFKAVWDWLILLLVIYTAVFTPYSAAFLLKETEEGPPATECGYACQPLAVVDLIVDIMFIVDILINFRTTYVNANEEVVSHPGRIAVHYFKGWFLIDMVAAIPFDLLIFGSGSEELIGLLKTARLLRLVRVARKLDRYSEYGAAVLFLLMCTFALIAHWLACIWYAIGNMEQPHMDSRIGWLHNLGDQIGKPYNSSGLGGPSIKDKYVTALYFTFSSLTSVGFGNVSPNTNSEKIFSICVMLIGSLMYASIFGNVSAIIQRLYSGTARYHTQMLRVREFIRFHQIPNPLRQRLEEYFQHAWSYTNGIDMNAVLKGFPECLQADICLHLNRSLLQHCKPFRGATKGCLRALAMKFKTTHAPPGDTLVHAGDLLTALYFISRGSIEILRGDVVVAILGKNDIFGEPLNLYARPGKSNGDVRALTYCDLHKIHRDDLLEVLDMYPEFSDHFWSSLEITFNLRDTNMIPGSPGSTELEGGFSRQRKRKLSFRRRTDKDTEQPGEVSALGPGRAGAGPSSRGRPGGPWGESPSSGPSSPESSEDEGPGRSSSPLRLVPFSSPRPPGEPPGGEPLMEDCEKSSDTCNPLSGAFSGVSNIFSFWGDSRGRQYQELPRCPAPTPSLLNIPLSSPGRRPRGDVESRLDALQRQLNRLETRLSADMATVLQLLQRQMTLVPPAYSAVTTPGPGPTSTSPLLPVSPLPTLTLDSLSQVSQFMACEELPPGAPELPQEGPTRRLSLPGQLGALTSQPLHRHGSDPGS
Assay: Assay 5 - hERG assay (SyncroPatch 384PE patch clamp, CHO cells)
Details: geometric mean, CHO cells over-expressing hERG, read-out: Assay 5 (hERG Hu CHO IF EPh CR-Syncro) GMean IC50
pIC50: −log10 of the molar value.
RECORDED_ENDPOINT: pIC50

> print(dat)
                              smiles.record  recorded.endpoint  reading
1  O=c1c(C(F)(F)F)cccn1-c1ccc(N[C@H]2CC[C@H](Nc3nc4cccnc4[nH]3)C2)nc1              pIC50   < 4.40
2  CCc1cnc2[nH]c(N[C@H]3CC[C@H](Nc4ccc(-n5ccccc5=O)cn4)C3)nc2c1              pIC50   < 4.40
3  O=c1c(Cl)cccn1-c1ccc(N[C@H]2CC[C@H](Nc3nc4cccnc4[nH]3)C2)nc1              pIC50   < 4.40
4  O=c1[nH]c2ccsc2c(=O)n1-c1ccc(N[C@H]2CC[C@H](Nc3nc4cccnc4s3)C2)nc1              pIC50   < 4.40
5  CN1C(=O)CN(c2ccc(N[C@H]3CC[C@H](Nc4nc5cccnc5[nH]4)C3)nc2)C1=O              pIC50   < 4.40
6  O=c1ccc(Cl)cn1-c1ccc(N[C@H]2CC[C@H](Nc3nc4cccnc4o3)C2)nc1              pIC50     4.56
7  O=c1ccccn1-c1ccc(N[C@H]2CC[C@H](Nc3nc4ccc(Br)cc4o3)C2)nc1              pIC50     5.38
8  O=c1cccnn1-c1ccc(N[C@H]2CC[C@H](Nc3nc4cccnc4[nH]3)C2)nc1              pIC50   < 4.40
